Tested on: MiaPaCa-2 cells
Assay: Drug combination viability screen (ATPlite, 72 h)
Type: cell-based, human
Settings: Homo sapiens, MIA PaCa-2; read-out: EC50
Experimental: Cell viability was assessed by measuring ATP levels to indicate metabolic activity. Afterward, small amounts were transferred to 384-well intermediate plates (Greiner Bio-One GmbH, Germany). […] Control plates not containing any drug were used to correct for incubation effects, and data quality was assessed by calculation of Z-prime of positive and negative controls according to1 Z-prime=1−3SDpos+3SDneg/[…] where SD is the standard deviation. […]
property label: EC50 (nM)
Give a bare numeral; the unit nM is implied.

EC50 measured on `Nc1ccn([C@@H]2O[C@H](CO)[C@@H](O)C2(F)F)c(=O)n1` = 13.6
